system: TICA0159 IgG binding to biotinylated ticagrelor; test: Second generation HTRF epitope competition assay; conditions: IC50 relative to parent TICA0072 Fab
recorded metric: Fold Improved
Hey, just send me the number, nothing else.

Use the examples below as a reference point.
1. TICA0162: VH CDR3 variant of TICA0072; VH SEQ ID NO:52, VL SEQ ID NO:57 (antibody, listed as Homo sapiens, V domains shown) VH: QVQLQESGAEVKKPGSSVRVSCKASGGTFDSYSIHWVRQAPGQGLEWMGGIIPAFGTLSSAQDFQARVTISADKSTSTAYMELSGLRSEDTAVYYCARGSFDYYFWSASHPPNDALAIWGQGTLVTVSS VL: QSVVTQPPSVSAAPGQKVTISCSGSNSDIGNNYVSWYQQLPGTAPKLLIYDNNKRPSGIPDRFSGSKSGTSATLAITGLQAGDEADYYCGTWDISLSAGLFGGGTKVTVL; 105.2
2. TICA0212: combination of TICA0162 and TICA0152; VH SEQ ID NO:72, VL SEQ ID NO:77 (antibody, listed as Homo sapiens, V domains shown) VH: QVQLQESGAEVKKPGSSVRVSCKASGGTFDSYSIHWVRQAPGQGLEWMGGIIPAFGTLSSAQDFQARVTISADKSTSTAYMELSGLRSEDTAVYYCARGSFDYYFWSASHPPNDALAIWGQGTLVTVSS VL: QSVVTQPPSVSAAPGQKVTISCSGSNSDIGNNYVSWYQQLPGTAPKLLIYDNNKRPSGIPDRFSGSKSGTSATLAITGLQAGDEADYYCGTWLYDRAVGLFGGGTKVTVL; 142.8

Query molecule follows.
Looking for the measured Fold Improved of TICA0072: parent anti-ticagrelor/TAM antibody; VH SEQ ID NO:32, VL SEQ ID NO:37 (antibody, listed as Homo sapiens, V domains shown) VH: QVQLQESGAEVKKPGSSVRVSCKASGGTFDSYSIHWVRQAPGQGLEWMGGIIPAFGTLSSAQDFQARVTISADKSTSTAYMELSGLRSEDTAVYYCARGSHLYDFWSASHPPNDALAIWGQGTLVTVSS VL: QSVVTQPPSVSAAPGQKVTISCSGSNSDIGNNYVSWYQQLPGTAPKLLIYDNNKRPSGIPDRFSGSKSGTSATLAITGLQAGDEADYYCGTWDISLSAGLFGGGTKVTVL , can you help?
0
